Read-out: Macrophage colony-stimulating factor (MCSF), CSF1 (gene 1435)
assay.method.text: BSK_CASM3C_MCSF: BioMAP Diversity Plus: CASM3C Assay for Macrophage colony-stimulating factor (MCSF) Biomarker Activity (AID 2283044);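 further: M-CSF protein amount quantified by ELISA after 24 h exposure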
measurement.parameters: primary human coronary artery smooth muscle cells; actives raise or lower the signal
Active and inactive are the calls of the source. How the source made its calls: active means hit-call score of the fitted dose curve at least 0.9, where 1 is the maximum; inactive means score below 0.9.
Outcome codes: active, inactive

| compound | category.label |
| --- | --- |
| CC[C@H](c1ccc(O)cc1)[C@@H](CC)c1ccc(O)cc1 | inactive |
| CCC(C)(C)C1CCC(O)CC1 (centres undefined) | inactive |
| CC(O)CO (centres undefined) | inactive |
| COCC(C)O (centres undefined) | inactive |
| CN1CCN(c2ccccc2/C=C2\SCCN(c3ccc(Cl)c(Cl)c3)C2=O)CC1 | inactive |
| CC(=O)CC(C)(C)O | inactive |
| NC(=O)N1C(=O)C(C(=O)c2cc(Cl)cs2)c2cc(F)c(Cl)cc21 (centres undefined) | inactive |
| N#C[C@@H]1CC(F)(F)CN1C(=O)CNC1CC2CCC(C1)N2c1ncccn1 (some centres undefined) | inactive |
| CCCCCCCCC(=O)O | inactive |
| Cc1cc(CCN2CCN(c3nsc4ccccc34)CC2)cc2c1NC(=O)CC2(C)C | active |
| CCN(CC)CCNc1ccc(CNC=O)c2sc3ccc(OC)cc3c(=O)c12 | active |
| CCCOc1sc(C(=O)N2CCC(c3cc(CN)ccc3F)CC2)c(C)c1Br | active |
| NCC(F)(F)C(F)(F)C(F)(F)C(F)(F)C(F)(F)C(F)(F)C(F)(F)F | inactive |
| CCCCOCCO | inactive |
| Oc1cccc(O)c1 | inactive |
| CCc1nn(C2CCCCC2)c2cc(C3(C#N)CCC(C(=O)O)CC3)ccc12 (centres undefined) | active |
| CCOC(=O)CC(O)(CC(=O)OCC)C(=O)OCC | inactive |
| FC(F)(I)C(F)(F)C(F)(F)C(F)(F)C(F)(F)C(F)(F)I | active |
| O=c1c(-c2ccc(O)cc2)coc2cc(O)ccc12 | inactive |
| CC(C)(C)c1cccc(C(C)(C)C)c1O | inactive |
| Nc1cccc2c(N)cccc12 | inactive |
| O=C(OCCOCCOC(=O)c1ccccc1)c1ccccc1 | inactive |
| CCCCC(CC)COC(=O)CCCCC(=O)OCc1ccccc1 (centres undefined) | inactive |
| COc1ccc([N+](=O)[O-])cc1N | inactive |
| CCCCCCC(=O)O | inactive |
| Cc1oc(-c2ccccc2)nc1CCOc1ccc(C[C@H](Nc2ccccc2C(=O)c2ccccc2)C(=O)O)cc1 | active |
| OC1CCC(C2CCCCC2)CC1 (centres undefined) | inactive |
| CC(C)CCCCCCOC(=O)CCCCC(=O)OCCCCCCC(C)C | inactive |
| CCCCCCCCCCCCc1ccccc1S(=O)(=O)O | inactive |
| CCCOC(=O)c1ccc(O)cc1 | inactive |
| CC1=C(/C=C/C(C)=C/C=C/C(C)=C/C(=O)O)C(C)(C)CCC1 | inactive |
| CC(C)(C)c1ccc(O)c(C(C)(C)C)c1 | active |
| CCCCCCCCCCCCN1CCCC1=O | inactive |
| Oc1cc2ccccc2c2ccccc12 | active |
| COCC(C)OCC(C)O (centres undefined) | inactive |
| CC[C@H](C)[C@@H](C(=O)O)n1sc2ccccc2c1=O | inactive |
| c1ccc2c(c1)ccc1ccccc12 | inactive |
| O=[N+]([O-])c1ccc(O)cc1 | inactive |
| CCCCC(CC)COC(=O)CCCCC(=O)OCC(CC)CCCC (centres undefined) | inactive |

Values from PubChem BioAssay (EPA / NIEHS)
